- procedureDetails: Volume of distribution at steady state in Sprague-Dawley rat at 0.5 mg/kg, iv
- Assay type: ADME, organism-based
- Design: dose 0.5 mg/kg, route intravenous
- appliedConditions: in vivo, read-out: Vdss

molecule | Vd [L/kg]
CC(C)CN(c1ccc(C(O)(C#Cc2ccc(S(C)(=O)=O)cc2)C(F)(F)F)cc1)S(=O)(=O)c1ccccc1 (configuration not stated) | 4.4
CS(=O)(=O)c1ccc(C#CC(O)(c2ccc(N(CC3CC3)S(=O)(=O)c3ccccc3)cc2)C(F)(F)F)cc1 (configuration not stated) | 2.3

* * *

Recorded bioavailability for the following compounds
- procedureDetails: Oral bioavailability in Sprague-Dawley rat at 5 mg/kg
- Assay type: ADME, organism-based
- appliedConditions: in vivo

compound | bioavailability
CS(=O)(=O)c1ccc(C#CC(O)(c2ccc(N(CC3CC3)S(=O)(=O)c3ccccc3)cc2)C(F)(F)F)cc1 (configuration not stated) | 31%
CC(C)CN(c1ccc(C(O)(C#Cc2ccc(S(C)(=O)=O)cc2)C(F)(F)F)cc1)S(=O)(=O)c1ccccc1 (configuration not stated) | 9%
